Test system: YT (IL-2 2.5 ng/mL)
Assay: relative IC50 (inflection point of fitted viability curve, relative to fitted max inhibition); higher = less sensitive
Conditions: 72 h
REPORTED ENDPOINT: relative IC50 (nM)
Express your answer in nM, writing the number without its unit.

Previously resolved entries follow.
COMPOUND	relative IC50, nM
COc1ccc(-c2ccc3c(N4CCOC[C@@H]4C)nc(N4CCOC[C@@H]4C)nc3n2)cc1CO [AZD8055]	55.6
Cc1cc(OCc2nnc(SC3CCCC3)n2-c2cccnc2)ccc1-c1ccc(S(C)(=O)=O)cc1 [NMS-873]	48.7
CN(C)Cc1ccc(S(=O)(=O)n2ccc(/C=C/C(=O)NO)c2)cc1 [Resminostat]	1460

Qu. Query (compound): COc1ccc(-c2ccc3ncc4c(c3c2)n(-c2ccc(N3CCNCC3)c(C(F)(F)F)c2)c(=O)n4C)cn1 [NVP-BGT226] ; field requested: relative IC50
Ans. 45.6

Qu. Query (compound): CCn1nnc2c(N3CCOCC3)nc(-c3ccc(NC(=O)Nc4ccc(C(=O)N5CCN(C)CC5)cc4)cc3)nc21 [PKI-402] ; field requested: relative IC50
Ans. 208

Origin of values: the supplement of paper PMC5908809
